experiment: in vivo; settings: Wistar Han, rat, at 0.6 to 2 µmol/kg
value type: bioavailability

| chemical string | result |
| --- | --- |
| CC(=O)N[C@H]1CSCCC(=O)N2CN3CN(C2)C(=O)CCSC[C@H](NC(=O)[C@@H](CC(=O)O)NC(=O)[C@H](CCC(=O)O)NC(=O)[C@H](CC(C)C)NC(=O)[C@H](Cc2c[nH]c4ccccc24)NC(=O)[C@@H](CCC(N)=O)NC1=O)C(=O)N[C@@H](Cc1c[nH]c2ccccc12)C(=O)N[C@@H](CCCNC(=N)N)C(=O)NCC(=O)N[C@@H](Cc1ccc(F)cc1)C(=O)N[C@H](C(=O)O)CSCCC3=O | 2.3% |
| CC(=O)N[C@H]1CSCCC(=O)N2CN3CN(C2)C(=O)CCSC[C@H](NC(=O)[C@H](CC(=O)O)NC(=O)[C@H](CCC(=O)O)NC(=O)[C@H](CC(C)C)NC(=O)[C@H](Cc2cccc4ccccc24)NC(=O)[C@H](CCC(N)=O)NC1=O)C(=O)N[C@@H](Cc1c[nH]c2ccccc12)C(=O)N[C@@H](CCCNC(=N)N(C)C)C(=O)NCC(=O)N[C@@H](Cc1ccc(F)cc1)C(=O)N[C@H](C(=O)N[C@@H](C)C(N)=O)CSCCC3=O | 8.6% |
| CC(=O)N[C@H]1CSCCC(=O)N2CN3CN(C2)C(=O)CCSC[C@H](NC(=O)[C@H](CC(=O)O)NC(=O)[C@H](CCC(=O)O)NC(=O)[C@H](CC(C)C)NC(=O)[C@H](Cc2c[nH]c4ccccc24)NC(=O)[C@H](CCC(N)=O)NC1=O)C(=O)N[C@@H](Cc1c[nH]c2ccccc12)C(=O)N[C@@H](CCCNC(=N)N)C(=O)NCC(=O)N[C@@H](Cc1ccc(F)cc1)C(=O)N[C@H](C(=O)N[C@@H](C)C(N)=O)CSCCC3=O | 3.4% |
